# RUN DESCRIPTION: Time course of conversion to indirubin in FaSSIF at 37° C.
# Assay type: physicochemical
# CONDITION DESCRIPTION: FaSSIF 37° C., 15 min
REPORTED METRIC: indirubin (%)

COMPOUND	UNITS LABEL	indirubin
CC(=O)N1CCN(CN2C(=O)/C(=C3\Nc4ccccc4C3=O)c3ccccc32)CC1 [drawing 258]	%	8

(a) CCN(CC)CN1C(=O)/C(=C2\Nc3ccccc3C2=O)c2ccccc21 [drawing 252]
(b) O=C1/C(=C2/C(=O)N(CN3CCC(F)(F)CC3)c3ccccc32)Nc2ccccc21 [drawing 260]
(c) O=C1/C(=C2/C(=O)N(CN3CCOCC3)c3ccccc32)Nc2ccccc21 [drawing 261]
Exercise: Please order the records by their reported indirubin, lowest number first. Reply with the labels, ordered as the question asks.
Solution: c, b, a

(1) CN(C)C1CCN(CN2C(=O)/C(=C3\Nc4ccccc4C3=O)c3ccccc32)CC1 [drawing 256]
(2) CNCCNC(=O)N1C(=O)/C(=C2\Nc3ccccc3C2=O)c2ccccc21.Cl [drawing 264]
(3) CN1CCN(CN2C(=O)/C(=C3\Nc4ccccc4C3=O)c3ccccc32)CC1 [drawing 265]
Exercise: hey, can you rank those compounds up there by indirubin? biggest number first please Reply with the labels, ordered as the question asks.
Solution: 1, 3, 2

---

# RUN DESCRIPTION: Time course of conversion to indirubin in FaSSIF at 37° C.
# Format: physicochemical
# CONDITION DESCRIPTION: FaSSIF 37° C. 24 h
REPORTED METRIC: indirubin methylene alcohol (%)

Here's what some known entries look like.
COMPOUND	UNITS LABEL	indirubin methylene alcohol
O=C1/C(=C2/C(=O)N(CN3CCOCC3)c3ccccc32)Nc2ccccc21 [drawing 261]	%	7
O=C1/C(=C2/C(=O)N(C(=O)NC3CCOCC3)c3ccccc32)Nc2ccccc21 [drawing 263]	%	0
CCN(CC)CN1C(=O)/C(=C2\Nc3ccccc3C2=O)c2ccccc21 [drawing 252]	%	0
CNCCNC(=O)N1C(=O)/C(=C2\Nc3ccccc3C2=O)c2ccccc21.Cl [drawing 264]	%	0
CN1CCN(CN2C(=O)/C(=C3\Nc4ccccc4C3=O)c3ccccc32)CC1 [drawing 265]	%	0
O=C1/C(=C2/C(=O)N(CN3CCCC3)c3ccccc32)Nc2ccccc21 [drawing 255]	%	0

(P) CN(C)CCN(CCN(C)C)CN1C(=O)/C(=C2\Nc3ccccc3C2=O)c2ccccc21 [drawing 257]
(Q) O=C1/C(=C2/C(=O)N(COS(=O)(=O)O)c3ccccc32)Nc2ccccc21 [drawing 262]
Exercise: Identify the entry with the larger indirubin methylene alcohol. Options: P and Q In your reply, give the label of the chosen option.
Solution: Q
(Q: 83%, P: 4%)

---

# RUN DESCRIPTION: Stability of indirubin prodrugs in simulated fluids (FaSSIF, FaSSGF), 24 h at 37° C., UPLC-MS
# Format: physicochemical
# CONDITION DESCRIPTION: FaSSGF 37° C. 24 h
REPORTED METRIC: Fraction (percent) of starting material (SM) (%)

SMI	EXPERIMENTAL VALUE
Cl.NCCCNC(=O)N1C(=O)/C(=C2\Nc3ccccc3C2=O)c2ccccc21	86
CC(=O)NCCNC(=O)N1C(=O)/C(=C2\Nc3ccccc3C2=O)c2ccccc21	100
CCOC(=O)N1C(=O)/C(=C2\Nc3ccccc3C2=O)c2ccccc21	100
CCCCCCCCCCC(=O)N1C(=O)/C(=C2\Nc3ccccc3C2=O)c2ccccc21	100
CN(C)CCNC(=O)N1C(=O)/C(=C2\Nc3ccccc3C2=O)c2ccccc21	100
O=C1/C(=C2/C(=O)N(CS(=O)(=O)c3ccccc3)c3ccccc32)Nc2ccccc21	100
C=CCOC(=O)N1C(=O)/C(=C2\Nc3ccccc3C2=O)c2ccccc21	100
O=C1Nc2ccccc2/C1=C1/Nc2ccccc2/C1=N\O	100
COCN1C(=O)/C(=C2\Nc3ccccc3C2=O)c2ccccc21	100
CN1CCN(CCNC(=O)N2C(=O)/C(=C3\Nc4ccccc4C3=O)c3ccccc32)CC1	93

---

# RUN DESCRIPTION: Time course of conversion to indirubin in FaSSGF at 37° C.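 Note: compound incubated in fasted state simulated gastric fluid, species in samples quantified by UPLC-MS with UV (210–400 nm) and ELS detection.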
# Format: physicochemical
# CONDITION DESCRIPTION: FaSSGF (Example 4; table title prints FaSSIF) 37° C., 24 h
REPORTED METRIC: indirubin methylene alcohol (%)

Here's what some known entries look like.
COMPOUND	REPORTED METRIC	UNITS LABEL	EXPERIMENTAL VALUE
CN(C)CCN(CCN(C)C)CN1C(=O)/C(=C2\Nc3ccccc3C2=O)c2ccccc21 [drawing 271]	indirubin methylene alcohol	%	9
O=C1/C(=C2/C(=O)N(CN3CCOCC3)c3ccccc32)Nc2ccccc21 [drawing 276]	indirubin methylene alcohol	%	3
O=C1/C(=C2/C(=O)N(CO)c3ccccc32)Nc2ccccc21 [drawing 274]	indirubin methylene alcohol	%	78
CN(C)C1CCN(CN2C(=O)/C(=C3\Nc4ccccc4C3=O)c3ccccc32)CC1 [drawing 272]	indirubin methylene alcohol	%	1
O=C1/C(=C2/C(=O)N(CN3CCCCC3)c3ccccc32)Nc2ccccc21 [drawing 269]	indirubin methylene alcohol	%	0

(P) CN1CCN(CN2C(=O)/C(=C3\Nc4ccccc4C3=O)c3ccccc32)CC1 [drawing 273]
(Q) O=C1/C(=C2/C(=O)N(COS(=O)(=O)O)c3ccccc32)Nc2ccccc21 [drawing 277]
Exercise: Kindly compare P with Q and tell me which has the lower indirubin methylene alcohol figure. In your reply, give the label of the chosen option.
Solution: P
(P: 0%, Q: 8%)

(A) CCN(CC)CN1C(=O)/C(=C2\Nc3ccccc3C2=O)c2ccccc21 [drawing 267]
(B) O=C1/C(=C2/C(=O)N(CN3CCC3)c3ccccc32)Nc2ccccc21 [drawing 275]
(C) O=C1/C(=C2/C(=O)N(CN3CCCC3)c3ccccc32)Nc2ccccc21 [drawing 270]
(D) CN(C)CCN(C)CN1C(=O)/C(=C2\Nc3ccccc3C2=O)c2ccccc21 [drawing 268]
Exercise: hey, can you rank those compounds up there by indirubin methylene alcohol? biggest number first please Reply with the labels, ordered as the question asks.
Solution: D, B, C, A
(D: 5%, B: 3%, C: 1%, A: 0%)

---

# RUN DESCRIPTION: Stability of indirubin prodrugs in simulated fluids (FaSSIF, FaSSGF), 24 h at 37° C., UPLC-MS
# Format: physicochemical
# CONDITION DESCRIPTION: FaSSGF 37° C. 24 h
REPORTED METRIC: Fraction (percent) of indirubin (%)

Here's what some known entries look like.
SMI	EXPERIMENTAL VALUE
O=C(O)CCC(=O)OCN1C(=O)/C(=C2\Nc3ccccc3C2=O)c2ccccc21	0
CN(C)CCCCNC(=O)N1C(=O)/C(=C2\Nc3ccccc3C2=O)c2ccccc21	0
O=C1/C(=C2/C(=O)N(COc3ccccc3)c3ccccc32)Nc2ccccc21	0
O=C1/C(=C2/C(=O)N(C(=O)CCCN3CCOCC3)c3ccccc32)Nc2ccccc21	0

(P) CCCCCCCCCCC(=O)N1C(=O)/C(=C2\Nc3ccccc3C2=O)c2ccccc21
(Q) CC(=O)OCN1C(=O)/C(=C2\Nc3ccccc3C2=O)c2ccccc21
Exercise: Kindly compare P with Q and tell me which has the lower Fraction (percent) of indirubin figure. In your reply, give the label of the chosen option.
Solution: P
(P: 0%, Q: 3%)

(A) C=CCOC(=O)N1C(=O)/C(=C2\Nc3ccccc3C2=O)c2ccccc21
(B) Cl.NCCCNC(=O)N1C(=O)/C(=C2\Nc3ccccc3C2=O)c2ccccc21
Exercise: Kindly compare A with B and tell me which has the lower Fraction (percent) of indirubin figure. In your reply, give the label of the chosen option.
Solution: A

---

# RUN DESCRIPTION: Time course of conversion to indirubin in FaSSIF at 37° C.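 Note: test compound, about 1-3 mg in 5 mL FaSSIF, sampled and analysed by UPLC-MS with PDA UV (210-400 nm), QDa mass and evaporative light scattering detection.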
# Assay type: physicochemical
# CONDITION DESCRIPTION: FaSSIF 37° C., 30 min
REPORTED METRIC: starting material (prodrug compound) (%)

Here's what some known entries look like.
COMPOUND	starting material (prodrug compound) (%)
CN1CCN(CN2C(=O)/C(=C3\Nc4ccccc4C3=O)c3ccccc32)CC1 [drawing 265]	74
CN(C)CCN(CCN(C)C)CN1C(=O)/C(=C2\Nc3ccccc3C2=O)c2ccccc21 [drawing 257]	6
CCN(CC)CN1C(=O)/C(=C2\Nc3ccccc3C2=O)c2ccccc21 [drawing 252]	0
CC(=O)N1CCN(CN2C(=O)/C(=C3\Nc4ccccc4C3=O)c3ccccc32)CC1 [drawing 258]	37

(A) O=C1/C(=C2/C(=O)N(C(=O)NC3CCOCC3)c3ccccc32)Nc2ccccc21 [drawing 263]
(B) O=C1/C(=C2/C(=O)N(CN3CCOCC3)c3ccccc32)Nc2ccccc21 [drawing 261]
Exercise: Kindly compare A with B and tell me which has the lower starting material (prodrug compound) figure. In your reply, give the label of the chosen option.
Solution: A
